target: human 5-HT2C receptor (Homo sapiens); assay: 5-HT2C receptor-stimulated calcium mobilization (FLIPR) in CHO cells; assay type: cell-based; conditions: calcium mobilization, CHO cells stably expressing human 5-HT2C; read-out: 5-HT2C Function EC50;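 further: Fluo-3-AM fluorescence read on FLIPR every 1 s, agonist added after 10 baseline reads, response taken as peak minus lowest raw fluorescence count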
Sequence (P28335 33-458): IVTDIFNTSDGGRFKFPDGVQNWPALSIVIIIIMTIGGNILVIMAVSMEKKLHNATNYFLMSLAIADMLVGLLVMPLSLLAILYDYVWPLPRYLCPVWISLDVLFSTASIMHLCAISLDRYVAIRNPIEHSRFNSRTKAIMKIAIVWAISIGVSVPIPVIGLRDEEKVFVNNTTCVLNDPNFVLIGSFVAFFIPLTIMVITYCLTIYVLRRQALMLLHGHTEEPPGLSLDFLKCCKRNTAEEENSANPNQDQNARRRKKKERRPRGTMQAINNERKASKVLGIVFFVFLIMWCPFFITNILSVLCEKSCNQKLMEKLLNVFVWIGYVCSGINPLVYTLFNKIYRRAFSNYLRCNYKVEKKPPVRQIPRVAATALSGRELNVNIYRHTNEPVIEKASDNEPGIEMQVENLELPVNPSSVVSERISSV
Below: a set of entries, each annotated with reported EC50.
Respond numerically; units are nM and should not be typed.

Example entries begin here.
1. CNCC1Cc2cc(F)cc(-c3cc(F)ccc3F)c2O1 (racemic) [Example 448]; 78
2. COc1cccc(-c2cccc3c2OC(CN)C3)c1OC (single isomer, unassigned; (-)) [Example 156]; 6
3. CNCC1Cc2cccc(-c3cccc(OC)c3OC)c2O1 (racemic) [Example 423]; 28

Then this molecule:
Let me know recorded EC50 for NCC1Cc2cc(F)cc(-c3ccc(Cl)cc3Cl)c2O1 (racemic) [Example 216] , thanks.
0.2
